Form field: inhibition at 12 µM (one value per entry).
target: human serum albumin site 2 (Homo sapiens); assay: in vitro; settings: fatty acid containing human serum albumin, pH 7.4, probe dansylsarcosine
Description: Displacement of radiolabeled dansylsarcosine from fatty acid containing human serum albumin site 2 in phosphate buffer at pH 7.4 at 12 uM by fluorescence spectroscopy
Hi! Could you send only the number? It should be in %, unit omitted.

Consider the following illustrative entries.
INSERT INTO results (molecule, target_under_test, metric, unit_symbol, measured) VALUES
  ('O=C(O)c1ccccc1Nc1cccc(C(F)(F)F)c1', 'human serum albumin site 2 (Homo sapiens)', 'inhibition at 12 µM', '%', 91.2),
  ('CC/C(=C(\c1ccccc1)c1ccc(OCCN(C)C)cc1)c1ccccc1', 'human serum albumin site 2 (Homo sapiens)', 'inhibition at 12 µM', '%', 62.2),
  ('NS(=O)(=O)c1cc(C(=O)O)c(NCc2ccco2)cc1Cl [FUROSEMIDE]', 'human serum albumin site 2 (Homo sapiens)', 'inhibition at 12 µM', '%', 49),
  ('CN1C(C(=O)Nc2ccccn2)=C(O)c2ccccc2S1(=O)=O', 'human serum albumin site 2 (Homo sapiens)', 'inhibition at 12 µM', '%', 44.8);

Provide inhibition at 12 µM, system human serum albumin site 2 (Homo sapiens), entry CC(=O)CC(c1ccc([N+](=O)[O-])cc1)c1c(O)c2ccccc2oc1=O (stereo not given)
39

###

Form field: inhibition at 12 µM (one value per entry).
biological target: human serum albumin site 2 (Homo sapiens, UniProt P02768); experiment: in vitro; conditions: fatty acid-free human serum albumin, pH 7.4, probe dansylsarcosine
Sequence (P02768 whole entry): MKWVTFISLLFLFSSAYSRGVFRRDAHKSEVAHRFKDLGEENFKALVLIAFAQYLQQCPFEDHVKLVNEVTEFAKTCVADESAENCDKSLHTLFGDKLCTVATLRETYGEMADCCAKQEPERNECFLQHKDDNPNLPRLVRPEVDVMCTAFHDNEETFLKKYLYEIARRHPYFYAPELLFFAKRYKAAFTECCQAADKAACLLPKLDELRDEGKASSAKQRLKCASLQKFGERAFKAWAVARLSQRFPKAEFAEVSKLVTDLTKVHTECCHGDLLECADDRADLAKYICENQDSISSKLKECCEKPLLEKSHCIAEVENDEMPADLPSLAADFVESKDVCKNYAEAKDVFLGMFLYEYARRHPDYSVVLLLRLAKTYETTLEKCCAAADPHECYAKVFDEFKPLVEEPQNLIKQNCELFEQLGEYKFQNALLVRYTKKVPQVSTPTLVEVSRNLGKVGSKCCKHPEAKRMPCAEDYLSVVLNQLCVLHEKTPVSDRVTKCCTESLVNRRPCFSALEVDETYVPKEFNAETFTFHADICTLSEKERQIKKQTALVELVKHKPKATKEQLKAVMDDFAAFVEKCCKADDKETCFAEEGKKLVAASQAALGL
Description: Displacement of radiolabeled dansylsarcosine from fatty acid-free human serum albumin site 2 in phosphate buffer at pH 7.4 at 12 uM by fluorescence spectroscopy
Hi! Could you send only the number? It should be in %, unit omitted.

Consider the following illustrative entries.
INSERT INTO assay_data (compound, target_under_test, metric, measured) VALUES
  ('O=C1CN=C(c2ccccc2Cl)c2cc([N+](=O)[O-])ccc2N1 [CLONAZEPAM]', 'human serum albumin site 2 (Homo sapiens, UniProt P02768)', 'inhibition at 12 µM', 16.2),
  ('CN1C(C(=O)Nc2ccccn2)=C(O)c2sccc2S1(=O)=O [TENOXICAM]', 'human serum albumin site 2 (Homo sapiens, UniProt P02768)', 'inhibition at 12 µM', 27.4),
  ('O=C(O)c1ccccc1Nc1cccc(C(F)(F)F)c1 [FLUFENAMIC ACID]', 'human serum albumin site 2 (Homo sapiens, UniProt P02768)', 'inhibition at 12 µM', 95.8),
  ('NS(=O)(=O)c1cc(C(=O)O)c(NCc2ccco2)cc1Cl [FUROSEMIDE]', 'human serum albumin site 2 (Homo sapiens, UniProt P02768)', 'inhibition at 12 µM', 19.2),
  ('Cc1onc(-c2ccccc2Cl)c1C(=O)N[C@@H]1C(=O)N2[C@@H]1SC(C)(C)[C@@H]2C(=O)O [CLOXACILLIN]', 'human serum albumin site 2 (Homo sapiens, UniProt P02768)', 'inhibition at 12 µM', 24.1);

Tell me inhibition at 12 µM reported for O=C1C(CC[S+]([O-])c2ccccc2)C(=O)N(c2ccccc2)N1c1ccccc1 (stereo not given) [SULFINPYRAZONE]
18.6

Tell me inhibition at 12 µM reported for CN1C(C(=O)Nc2ccccn2)=C(O)c2ccccc2S1(=O)=O [PIROXICAM]
45.5

Tell me inhibition at 12 µM reported for O=c1oc2ccccc2c(O)c1Cc1c(O)c2ccccc2oc1=O [DICUMAROL]
88.8

Tell me inhibition at 12 µM reported for O=C(O)CCC(=O)c1ccc(-c2ccccc2)cc1 [FENBUFEN]
70

Tell me inhibition at 12 µM reported for COc1ccc(Cl)cc1C(=O)NCCc1ccc(S(=O)(=O)NC(=O)NC2CCCCC2)cc1 [GLYBURIDE]
33.9

Tell me inhibition at 12 µM reported for CC/C(=C(\c1ccccc1)c1ccc(OCCN(C)C)cc1)c1ccccc1 [TAMOXIFEN]
16.3

Tell me inhibition at 12 µM reported for Cc1cc(NC(=O)C2=C(O)c3ccccc3S(=O)(=O)N2C)no1 [ISOXICAM]
33.1

Tell me inhibition at 12 µM reported for CCN(CC)CCN1C(=O)CN=C(c2ccccc2F)c2cc(Cl)ccc21 [FLURAZEPAM]
4.3

Tell me inhibition at 12 µM reported for NS(=O)(=O)c1cc2c(cc1Cl)N=CNS2(=O)=O [CHLOROTHIAZIDE]
8

Tell me inhibition at 12 µM reported for CCCNC(=O)NS(=O)(=O)c1ccc(Cl)cc1 [CHLORPROPAMIDE]
28.5
